Cited source: PubChem BioAssay (NCI)

test system: NCI-H226 lung; assay: NCI-60 one-dose screen, 48 h (100 = growth as untreated, 0 = no growth, -100 = all killed); details: 10 µM unless noted
This is part of a sample that, as a whole, favours compounds with a hit. Of some 83,000 tested, about 20% had one in any assay.
Provide the reported growth of each item.
The reply should be a number in %, with the unit left off.

Summary for this molecule, COc1cc2c(c(OC)c1OC)C(=O)CC(c1cccc(C(=O)Nc3ccc(C#N)cc3)c1)O2 (stereo not given) : growth is 46.9

Summary for this molecule, COc1cc(/C=C/c2cc(/C=C/c3ccc(O)c(OC)c3)n(C(=O)Nc3ccc(Cl)cc3)n2)ccc1O : growth is 5.73

Summary for this molecule, Oc1nc(NCc2ccccc2)sc1/C=C1\C=Nc2ncccc21 : growth is 62.3

Summary for this molecule, O=c1ccc2ccc(OCCN3CCCCC3)cc2o1 : growth is 103

Summary for this molecule, CCCCCCCCn1ccc2cc(NC(=O)CN3CCN(c4cc(C)nc(Cl)n4)CC3)ccc21 : growth is 82.2

Summary for this molecule, CC[C@H](Nc1nc(N)nc(C)c1C#N)c1nc2cccc(CN(C)c3ncc(C(=O)NO)cn3)c2c(=O)n1-c1ccccc1 : growth is 24.3

Summary for this molecule, O=[N+]([O-])c1ccccc1Nc1ccc2ccccc2c1 : growth is 97.1

Summary for this molecule, COc1cc2ncnc(Nc3ccc(F)c(Cl)c3)c2cc1OCC(=O)N1CCOCC1 : growth is 102

Summary for this molecule, CN(C)c1ccc(/C=N\NC(=O)c2ccc3nc(-c4ccc(Cl)cc4)[nH]c3c2)cc1 : growth is 93.1

Summary for this molecule, COc1cccc(CNc2c3ccccc3nc3ccccc23)c1OC : growth is 51.6

====

system: U251 CNS; assay: NCI-60 one-dose screen, 48 h (100 = growth as untreated, 0 = no growth, -100 = all killed); settings: 10 µM unless noted
This is part of a sample that, as a whole, favours compounds with a hit. Of some 83,000 tested, about 20% had one in any assay.
Provide the reported growth of each item.
The reply should be a number in %, with the unit left off.

Summary for this compound, CC(=O)Nc1sc2c(c1-c1nc3ccccc3s1)CNC2 : growth is 27.3

Summary for this compound, Clc1ccc(Nc2nnc(CNc3ccccc3)c3ccccc23)cc1 : growth is 9.66

Summary for this compound, O=C(c1ccc(Br)cc1)C(Br)C(c1ccc(Cl)cc1)C(c1ccccc1)[N+](=O)[O-] (stereo not given) : growth is 96.9

Summary for this compound, COc1ccc(CN2C(=O)OC(C)(COC(C)=O)C2=O)cc1 (stereo not given) : growth is 104

Summary for this compound, CCCCCCCCn1ccc2cc(NC(=O)CN3CCN(c4cc(C)nc(Cl)n4)CC3)ccc21 : growth is 89.5

Summary for this compound, COc1cc2ncnc(Nc3ccc(S(=O)(=O)Nc4nccs4)cc3)c2cc1OCCCN1CCCC1 : growth is 101

Summary for this compound, O=C1c2cccnc2C(=O)c2c1c(C(=O)OCCc1ccccn1)c1ccccn21 : growth is -82.5

Summary for this compound, O=Nc1ccc(NC(=O)Nc2ccc([N+](=O)[O-])cc2)cc1 : growth is 92.5

Summary for this compound, C=C(c1ccc(C(=O)O)c(F)c1)c1cc2c(cc1C)C(C)(C)CCC2(C)C : growth is 75.4

Summary for this compound, CCOC(=O)CNC1=C(Cl)C(=O)N(Cc2ccc(Cl)cc2)C1=O : growth is 100
